target: Nonstructural protein 5 (Dengue virus, UniProt V5TFZ2); assay: Mixed type inhibition of DENV3 NS5 RdRp using increasing concentration of ss-RNA PolyC as template assessed as free enzyme after 1 hr in presence of GTP substrate by Lineweaver-Burk double reciprocal plot analysis; design: species or system dengue virus type 3
Sequence (V5TFZ2 whole entry): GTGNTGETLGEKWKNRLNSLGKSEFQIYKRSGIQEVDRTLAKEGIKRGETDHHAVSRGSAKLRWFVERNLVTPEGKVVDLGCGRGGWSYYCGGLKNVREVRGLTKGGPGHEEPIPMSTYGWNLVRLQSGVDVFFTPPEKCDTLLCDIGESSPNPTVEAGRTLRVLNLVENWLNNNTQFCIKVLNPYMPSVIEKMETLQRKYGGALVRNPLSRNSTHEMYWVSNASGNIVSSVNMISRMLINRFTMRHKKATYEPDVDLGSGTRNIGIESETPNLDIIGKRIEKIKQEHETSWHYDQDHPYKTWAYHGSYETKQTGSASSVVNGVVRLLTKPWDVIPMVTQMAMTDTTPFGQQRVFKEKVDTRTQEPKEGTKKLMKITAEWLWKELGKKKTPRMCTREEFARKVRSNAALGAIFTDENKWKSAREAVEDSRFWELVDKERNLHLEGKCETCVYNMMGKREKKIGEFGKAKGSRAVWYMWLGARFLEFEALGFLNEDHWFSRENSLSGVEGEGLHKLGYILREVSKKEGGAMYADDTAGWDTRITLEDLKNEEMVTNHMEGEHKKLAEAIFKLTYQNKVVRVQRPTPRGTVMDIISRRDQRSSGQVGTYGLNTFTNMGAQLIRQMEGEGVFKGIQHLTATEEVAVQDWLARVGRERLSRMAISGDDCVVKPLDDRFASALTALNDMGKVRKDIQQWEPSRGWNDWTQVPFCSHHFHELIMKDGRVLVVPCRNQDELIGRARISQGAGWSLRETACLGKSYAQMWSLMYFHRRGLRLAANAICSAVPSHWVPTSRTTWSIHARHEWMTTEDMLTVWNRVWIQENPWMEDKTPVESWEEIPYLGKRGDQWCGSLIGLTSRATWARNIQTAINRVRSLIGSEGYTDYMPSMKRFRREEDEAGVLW
Measurement label: Ki
Give the figure together with its unit, number first.

Which Ki is reported for this compound? `O=C(OC1=CS(=O)(=O)Nc2ccc(Oc3ccccc3Br)cc21)c1ccc(F)c(F)c1`
1.54 µM

====

molecular target: UniProt:V5TFZ2; test: Inhibition of DENV3 full length NS5 RdRp assessed as decrease in dsRNA levels preincubated for 20 mins followed by ss-RNA and ATTO-CTP, ATP, GTP and UTP addition measured after 120 mins by FAPA assay; parameters: species or system dengue virus type 3
Measurement label: pIC50
Numbers only, as −log10 of the molar value.

Which pIC50 is reported for this compound? `COc1cc(C)c(C(=O)NS(=O)(=O)c2cccc3cccnc23)cc1-c1ccc(C#CCO)s1`
7.80

====

biological target: Nonstructural protein 5 (Dengue virus, UniProt V5TFZ2); assay: Mixed type inhibition of DENV3 NS5 RdRp using increasing concentration of ss-RNA PolyC as template assessed as enzyme-substrate complex after 1 hr in presence of GTP substrate by Lineweaver-Burk double reciprocal plot analysis; design: species or system dengue virus type 3
Measurement label: pKi
Give bare numbers, as −log10 of the molar value.

Which pKi is reported for this molecule? `O=C(OC1=CS(=O)(=O)Nc2ccc(Oc3ccccc3Br)cc21)c1ccc(F)c(F)c1`
5.36
